- System: influenza A/H3N2 (A/HK/7/87)
- assay: Antiviral CPE reduction assay, influenza A/H3N2 in MDCK cells
- Assay type: cell-based, influenza A virus
- measurement.parameters: Influenza A virus, H3N2; MDCK cells; CPE reduction, MTS; mean ± SD of two or three independent experiments; read-out: Antiviral Activity (EC50) Influenza H3N2
pEC50: −log10 of the molar value.
The entries below are paired with their reported pEC50.
readout.label: pEC50

[[record]]
compound = "C#Cc1cccc(Nc2ncnc3cc(OCCOC)c(OCCOC)cc23)c1 [Erlotinib, erlotinib, reference compound]"
readout_label = "pEC50"
observed_value = "< 4.00"

[[record]]
compound = "c1cc2c(c(Nc3ncnc4nc(NC5CC5)ncc34)c1)CCCC2"
readout_label = "pEC50"
observed_value = "< 4.30"

[[record]]
compound = "CN(C)CCNc1ncc2c(Nc3cccc4c3CCC4)ncnc2n1"
readout_label = "pEC50"
observed_value = "< 4.30"

[[record]]
compound = "CC(=O)N[C@H]1[C@H]([C@H](O)[C@H](O)CO)OC(C(=O)O)=C[C@@H]1N=C(N)N [Zanamivir, zanamivir, reference compound]"
readout_label = "pEC50"
observed_value = 5.52

[[record]]
compound = "CCN(CC)CCNc1ncc2c(Nc3cccc4c3CCC4)ncnc2n1"
readout_label = "pEC50"
observed_value = "< 4.30"

[[record]]
compound = "c1cc2c(c(Nc3ncnc4nc(NC5CC5)ncc34)c1)CCC2"
readout_label = "pEC50"
observed_value = "< 4.30"

[[record]]
compound = "c1cncc(Nc2ncnc3nc(NC4CC4)ncc23)c1"
readout_label = "pEC50"
observed_value = "< 4.30"

[[record]]
compound = "C#Cc1cccc(Nc2ncnc3nc(NCCN(CC)CC)ncc23)c1"
readout_label = "pEC50"
observed_value = "< 4.30"

[[record]]
compound = "C#Cc1cccc(Nc2ncnc3nc(NC4CC4)ncc23)c1"
readout_label = "pEC50"
observed_value = "< 4.30"

[[record]]
compound = "CCN(CC)CCNc1ncc2c(Nc3cccc4c3CCCC4)ncnc2n1"
readout_label = "pEC50"
observed_value = "< 4.30"

